- Test system: HL-60(TB) leukemia
- TEST: NCI tumour cell line growth inhibition, 48 h

COMPOUND | ASSAY_TARGET | TGI
Nc1ccc(C(OC(=O)c2cc3ccccc3c(Cc3c(O)c(C(=O)OC(c4ccc(N)cc4)(c4ccc(N)cc4)c4ccc(N)cc4)cc4ccccc34)c2O)(c2ccc(N)cc2)c2ccc(N)cc2)cc1 | HL-60(TB) leukemia | 23.3 µM
O=C(C(Cl)=C(N1CCCCC1)N1CCCCC1)C(Cl)Cl | HL-60(TB) leukemia | > 100 µM
O=C(O)CNC(=O)c1ccc2cc(C(=O)N3CC(CCl)c4ccc([N+](=O)[O-])cc43)[nH]c2c1 (centres undefined) | HL-60(TB) leukemia | > 100 µM
C[C@@H](COCCC(=O)N1CCN(c2ncc(C(F)(F)F)cn2)CC1)Nc1cn[nH]c(=O)c1C(F)(F)F | HL-60(TB) leukemia | > 100 µM

---

- System: PC-3 prostate
- TEST: NCI tumour cell line growth inhibition, 48 h
MEASURED_METRIC: TGI

COMPOUND | MEASURED_METRIC | VALUE_OBSERVED
Nc1cc(S(N)(=O)=O)ccc1SSc1ccc(S(N)(=O)=O)cc1N | TGI | > 100 µM
O=C(C(Cl)=C(N1CCCCC1)N1CCCCC1)C(Cl)Cl | TGI | > 100 µM
Cc1cnccc1N=Nc1ccc(N(C)C)cc1 | TGI | 97.3 µM
COC(=O)c1ccccc1C1=C([N+](=O)[O-])C(c2ccccc2)C(C#N)=C(N)O1 (centres undefined) | TGI | > 100 µM
Cc1ccc(Nc2cc(C)nc(NCCCNc3ccnc4cc(Cl)ccc34)n2)cc1 | TGI | 3.79 µM
NC(=O)c1ccccc1NC(=O)c1ccccc1Cl | TGI | > 100 µM
O=C1C2=C(SCCS2)C(=O)c2c(Sc3ccc(Cl)cc3)c(Sc3ccc(Cl)cc3)c(Sc3ccc(Cl)cc3)c(Sc3ccc(Cl)cc3)c21 | TGI | > 100 µM
Cc1ccc2c(C(=O)c3c(C)n(CCN4CCOCC4)c4ccccc34)cccc2c1 | TGI | 43.2 µM
N#C/C(=C\c1c(-c2ccccc2)[nH]c2ccccc12)C(=O)c1ccccc1 | TGI | > 100 µM

---

- Test system: UACC-62 melanoma
- TEST: NCI tumour cell line growth inhibition, 48 h; in the data active = GI50 below about 0.43 µM; inactive = the rest
Labels: TRUE (active), FALSE (inactive)

COMPOUND | GROUP
Cc1ncc(C(=O)Nc2ccc(CN3CCN(C)CC3)c(C(F)(F)F)c2)cc1C#Cc1c(N)ncc2ccccc12 | TRUE
COC(=O)[C@H](C)NC(=O)[C@@H](OC)[C@@H]1Cc2cc3cc(OC4CC(OC5CC(O)C(O)C(C)O5)C(O)C(C)O4)c(C)c(O)c3c(O)c2C(=O)[C@H]1OC1CC(OC2CC(OC3CC(C)(O)C(O)C(C)O3)C(O)C(C)O2)C(O)C(C)O1 (stereo partly drawn) | TRUE
FC(F)(F)c1cccc2c(SCCc3n[nH]c(=S)o3)ccnc12 | FALSE

---

- System: OVCAR-8 ovarian
- TEST: NCI tumour cell line growth inhibition, 48 h; in the data active = GI50 below about 0.43 µM; inactive = the rest
Labels: active, inactive

COMPOUND | GROUP
CN(C)CCCCn1ccc2c1C(=O)c1c(c(O)c3ccccc3c1O)C2=O | inactive
COc1ccc(-c2cc(-c3cccc(NS(C)(=O)=O)c3)nc(N)c2C#N)cc1 | active
NC(=O)c1ccccc1NC(=O)c1ccccc1Cl | inactive
O=c1oc2c3ccc4cnccc4c3[nH]c2c2ccccc12 | inactive
COc1cc2c3c(n(CCCBr)c(=O)c2cc1OC)-c1ccc(F)cc1C3=O | inactive
Cc1ccc2nc(-c3ccc(N)c4ccccc34)[nH]c2c1 | inactive
FC(F)(F)c1cccc2c(SCCc3n[nH]c(=S)o3)ccnc12 | inactive
Cc1nc2c(N3CCCC3)nc(N3CCNCC3)nc2nc1NCc1ccccc1 | inactive
COc1cc(C2CC(=O)Nc3c2ccc2ccccc32)cc(Br)c1OC (centres undefined) | inactive
COC(=O)[C@]12CC[C@@H](C)[C@H](C)[C@@H]1C1=CC[C@@H]3[C@@]4(C)C(C=O)=C[C@@](C)(COS(C)(=O)=O)C4[C@H](O)C[C@@]3(C)[C@]1(C)CC2 (some centres undefined) | inactive
C[C@@H](COCCC(=O)N1CCN(c2ncc(C(F)(F)F)cn2)CC1)Nc1cn[nH]c(=O)c1C(F)(F)F | inactive
COC(=O)[C@H](C)NC(=O)[C@@H](OC)[C@@H]1Cc2cc3cc(OC4CC(OC5CC(O)C(O)C(C)O5)C(O)C(C)O4)c(C)c(O)c3c(O)c2C(=O)[C@H]1OC1CC(OC2CC(OC3CC(C)(O)C(O)C(C)O3)C(O)C(C)O2)C(O)C(C)O1 (some centres undefined) | active
CC(=O)OC(C)c1cc2c(s1)C(=O)c1c(C(C)OC(C)=O)csc1C2=O (centres undefined) | inactive
CC(C)C[C@H](NC(=O)CCn1ccc2ncccc2c1=O)B(O)O | inactive
Cc1cc(C)c(S(=O)(=O)N(CCc2cccc(Br)c2)Cc2ccc(-c3cccc(S(C)(=O)=O)c3)cc2)c(C)c1 | inactive
N#Cc1ccc(Oc2cccc(Oc3ccccc3)c2)cc1C#N | inactive
CC1(C)CC([P+](c2ccccc2)(c2ccccc2)c2ccccc2)=NN1 | inactive
CCN(CC)CCn1c2ccc(OC)cc2c2sc3cc(OC)ccc3c(=O)c21 | inactive
Cc1ncc(C(=O)Nc2ccc(CN3CCN(C)CC3)c(C(F)(F)F)c2)cc1C#Cc1c(N)ncc2ccccc12 | inactive

---

- System: SN12C renal
- TEST: NCI tumour cell line growth inhibition, 48 h
MEASURED_METRIC: GI50

MOLECULE | MEASURED_METRIC | VALUE_OBSERVED
N#Cc1ccc(Oc2cccc(Oc3ccccc3)c2)cc1C#N | GI50 | > 100 µM
O=C(CCSc1ccnc2c(C(F)(F)F)cccc12)N/N=C/c1cc(Cl)c(Cl)cc1Cl | GI50 | 18 µM
COC(=O)[C@]12CC[C@@H](C)[C@H](C)[C@@H]1C1=CC[C@@H]3[C@@]4(C)C(C=O)=C[C@@](C)(COS(C)(=O)=O)C4[C@H](O)C[C@@]3(C)[C@]1(C)CC2 (stereo not given in full) | GI50 | 2.28 µM
O=S(=O)(NC1=NCCN1C(=S)SN1CCn2c1nsc2=S)c1ccccc1Cl | GI50 | 31.6 µM
COc1ccc(-c2ccc(-c3ccc(C(=N)N)cn3)o2)cc1Cl | GI50 | 1.77 µM

---

- Tested on: SF-268 CNS
- TEST: NCI tumour cell line growth inhibition, 48 h
Here, each record is paired with measured GI50 data.
MEASURED_METRIC: GI50

COMPOUND | MEASURED_METRIC | VALUE_OBSERVED
CN(C)CCCCn1ccc2c1C(=O)c1c(c(O)c3ccccc3c1O)C2=O | GI50 | 11 µM
CCNNC(=O)[C@@H]1[C@H](c2cc(OC)c(OC)c(OC)c2)c2cc3c(cc2[C@H](O)[C@H]1CO)OCO3 | GI50 | 1.31 µM
O=C(COc1cccc(/C=C2\Oc3ccc4ccccc4c3C2=O)c1)c1ccc(Cl)cc1 | GI50 | 23.1 µM
COc1cccc(C2SC(C)C(=O)N2CCc2cccs2)c1 (stereo unspecified) | GI50 | 2.72 µM
Clc1ccc(CNc2nccc(-c3cnn4ncccc34)n2)cc1 | GI50 | 7.25 µM
Cc1nc2c(N3CCCC3)nc(N3CCNCC3)nc2nc1NCc1ccccc1 | GI50 | 5.75 µM

---

- Test system: CAKI-1 renal
- TEST: NCI tumour cell line growth inhibition, 48 h
Here, each record is paired with measured TGI data.

COMPOUND | TGI
c1csc(-c2ccsc2-c2ccsc2)c1 | > 100 µM
N#C/C(=C\c1c(-c2ccccc2)[nH]c2ccccc12)C(=O)c1ccccc1 | > 100 µM
CCNNC(=O)[C@@H]1[C@H](c2cc(OC)c(OC)c(OC)c2)c2cc3c(cc2[C@H](O)[C@H]1CO)OCO3 | > 100 µM
COc1nc2c(nc(N)n2C2OCC(O)C(O)C2O)c(=O)n1C (stereo unspecified) | > 100 µM
COP(=O)(O)C(N)Cc1c[nH]c2ccccc12 (stereo unspecified) | > 100 µM
CC1(C)CC([P+](c2ccccc2)(c2ccccc2)c2ccccc2)=NN1 | > 100 µM
S=c1sc2cscc2s1 | 31.4 µM
COC(=O)c1cccc(OC)c1C#Cc1c(OC)cccc1OC | > 100 µM
CCOC(=O)N1C(c2ccccc2)C=CC(c2ccccc2)N1C(=O)OCC (stereo unspecified) | > 100 µM
O=C(N/C(=C\c1ccc(/C=C(\NC(=O)c2ccccc2)c2nc3ccccc3s2)cc1)c1nc2ccccc2s1)c1ccccc1 | 28 µM
CCOC(=O)C(=CN1CCNC1=S)C(=O)OCC | > 100 µM
